# tgt: Pin1 (Homo sapiens, UniProt Q13526)
# Construct: purchased Anaspec
# Sequence (Q13526 whole entry): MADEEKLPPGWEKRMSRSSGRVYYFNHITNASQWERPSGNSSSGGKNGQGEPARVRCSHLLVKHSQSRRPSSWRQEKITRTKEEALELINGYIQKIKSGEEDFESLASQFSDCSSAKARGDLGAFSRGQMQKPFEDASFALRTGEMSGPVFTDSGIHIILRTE
# assayOverview: Evaluation of Pin1 enzyme inhibitory activity (Sensolyte Green Pin1 assay kit)
# Type: biochemical
# runConditions: concentration at which the Pin1 enzyme activity is inhibited; 2 hours at room temperature, fluorescence 490 nm/520 nm; read-out: Pin 1 inhibition
pIC50: −log10 of the molar value.
experimentalReadout: pIC50

# molecule, experimentalReadout, endpointResult
records = [
    ("CN1CCN(CCCOc2ccc(S(=O)(=O)NCC3CCc4[nH]c5ccccc5c4C3)cc2)CC1 (stereo not shown)", "pIC50", "> 6.00"),
    ("CC(C)CCOc1ccc(S(=O)(=O)NCCCc2c[nH]c3ccccc23)cc1", "pIC50", "4.00 to 5.00"),
    ("O=S(=O)(NCCCc1c[nH]c2ccc(Cl)cc12)c1ccc(CCCCN2CCCCC2)cc1", "pIC50", "> 6.00"),
]

Now for another entry.
input: Entry `CCCCOc1ccc(S(=O)(=O)NCCCc2nc3ccccc3[nH]2)cc1` : reported pIC50 = ?
output: < 4.00

* * *

# System: A2780-SP cells (ovarian cancer stem cells)
# assayOverview: Sphere cell viability of A2780-SP cells (Cell-titer Glo)
# Assay type: cell-based
# runConditions: 192 h; sphere cell viability, culture for 8 days; read-out: A2780-SP
experimentalReadout: IC50

Below are worked cases with known answers.
# compound, IC50
rows = [
    ("O=S(=O)(NCCCc1c[nH]c2ccc(Cl)cc12)c1ccc(OCCCN2CCNCC2)nc1 [Example 79]", "< 1000 nM"),
    ("CN1CCN(CCCc2ccc(S(=O)(=O)NCCCc3c[nH]c4ccc(Cl)cc34)cc2)CC1 [Example 186]", "< 1000 nM"),
    ("C[C@H]1CN(CCCOc2ccc(S(=O)(=O)NCCCc3c[nH]c4ccc(Cl)cc34)cc2)CCN1C [Example 111]", "< 1000 nM"),
    ("Cc1[nH]c2ccc(Cl)cc2c1CCCNS(=O)(=O)c1ccc(OCCCN2CCN(C)CC2)cc1 [Example 147]", "> 10000 nM"),
]

input: Entry O=S(=O)(NCCCc1c[nH]c2cc(Cl)c(Cl)cc12)c1ccc(OCCCN2CCNCC2)cc1 [Example 183] : reported IC50 = ?
output: < 1000 nM

input: Entry CN1CCN(c2cccc(Oc3ccc(S(=O)(=O)NCCCc4c[nH]c5ccc(Cl)cc45)cc3)c2)CC1 [Example 118] : reported IC50 = ?
output: < 1000 nM

input: Entry CN1CCC(CCCOc2ccc(S(=O)(=O)NCCCc3c[nH]c4ccc(F)cc34)cc2)CC1 [Example 59] : reported IC50 = ?
output: < 1000 nM

input: Entry CN1CCCN(CCCOc2ccc(S(=O)(=O)NCCCc3c[nH]c4ccc(Cl)cc34)cc2)CC1 [Example 83] : reported IC50 = ?
output: < 1000 nM

input: Entry CN1CCN(CCCOc2ccc(S(=O)(=O)NCCCc3c[nH]c4ccc(Cl)cc34)cc2)CC1 [Example 66] : reported IC50 = ?
output: < 1000 nM

input: Entry O=S(=O)(NCCCc1c[nH]c2ccc(Cl)cc12)c1ccc(OCC2(CN3CCNCC3)CC2)cc1 [Example 117] : reported IC50 = ?
output: 1000 to 10000 nM

input: Entry O=S(=O)(NCCCc1c[nH]c2ccc(Cl)cc12)c1ccc(OCCCN2CCCC2)cc1 [Example 100] : reported IC50 = ?
output: < 1000 nM

input: Entry CN1CCN(CCCOc2ccc(S(=O)(=O)NCC3CCc4[nH]c5ccc(F)cc5c4C3)cc2)CC1 (stereo not shown) [Example 187] : reported IC50 = ?
output: < 1000 nM

input: Entry CN1CCN(CCCOc2ccc(S(=O)(=O)NCC3CCc4[nH]c5ccc(Cl)cc5c4C3)cc2)CC1 (stereo not shown) [Example 177] : reported IC50 = ?
output: < 1000 nM

input: Entry O=S(=O)(NCCCc1c[nH]c2ccc(Cl)cc12)c1ccc(OCCCC2CCNCC2)cc1 [Example 93] : reported IC50 = ?
output: < 1000 nM

input: Entry O=S(=O)(NCCCc1c[nH]c2ccc(Cl)cc12)c1ccc(CCCCC2CCNCC2)cc1 [Example 99] : reported IC50 = ?
output: < 1000 nM

input: Entry CN1CCN(c2cc(Br)cc(Oc3ccc(S(=O)(=O)NCCCc4c[nH]c5ccc(Cl)cc45)cc3)c2)CC1 [Example 138] : reported IC50 = ?
output: 1000 to 10000 nM

* * *

Listed next: entries and their corresponding IC50.
# System: MCF7-SP cells (breast cancer stem cells)
# assayOverview: Sphere cell viability of MCF7-SP cells (Cell-titer Glo)
# Assay type: cell-based
# runConditions: 192 h; sphere cell viability, culture for 8 days; read-out: MCF7-SP

input: Entry O=S(=O)(NCCCc1c[nH]c2ccc(Cl)cc12)c1ccc(OCCCN2CCNCC2)nc1 [Example 79] : reported IC50 = ?
output: > 10 µM

* * *

# tgt: Pin1 (Homo sapiens, UniProt Q13526)
# Construct: purchased Anaspec
# assayOverview: Evaluation of Pin1 enzyme inhibitory activity (Sensolyte Green Pin1 assay kit)
# Assay type: biochemical
# runConditions: concentration at which the Pin1 enzyme activity is inhibited; 2 hours at room temperature, fluorescence 490 nm/520 nm; read-out: Pin 1 inhibition
pIC50: −log10 of the molar value.
Listed next: entries and their corresponding pIC50.

Below are worked cases with known answers.
# sampleSmiles, pIC50
data = [
    ("CCCCOc1ccc(S(=O)(=O)NCCc2c[nH]c3ccc(O)cc23)cc1", "< 4.00"),
    ("O=S(=O)(NCCCc1c[nH]c2ccc(Cl)cc12)c1ccc(OCCCN2CCCCC2)cc1", "> 6.00"),
    ("CCCCOc1ccc(S(=O)(=O)NCCN2CCC(Cc3ccccc3)CC2)cc1", "< 4.00"),
    ("CN1CCN(c2cccc(Oc3ccc(S(=O)(=O)NCCCc4c[nH]c5ccc(Cl)cc45)cc3)c2)CC1", "> 6.00"),
    ("O=S(=O)(NCCCc1c[nH]c2ccccc12)c1ccc(Br)cc1", "< 4.00"),
]

input: Entry `O=S(=O)(NCCCc1c[nH]c2ccc(Cl)cc12)c1ccc(OCCCN2CCCCCC2)cc1` : reported pIC50 = ?
output: > 6.00

input: Entry `C[C@H]1CN(CCCOc2ccc(S(=O)(=O)NCCCc3c[nH]c4ccc(Cl)cc34)cc2)CCN1C` : reported pIC50 = ?
output: 5.00 to 6.00

input: Entry `Cc1[nH]c2ccccc2c1CCCNS(=O)(=O)c1ccc(OCCCN2CCN(C)CC2)cc1` : reported pIC50 = ?
output: 5.00 to 6.00

* * *

# tgt: Pin1 (Homo sapiens, UniProt Q13526)
# Construct: purchased Anaspec
# assayOverview: Evaluation of Pin1 enzyme inhibitory activity (Sensolyte Green Pin1 assay kit)
# Type: biochemical
# runConditions: concentration at which the Pin1 enzyme activity is inhibited; 2 hours at room temperature, fluorescence 490 nm/520 nm; read-out: Pin 1 inhibition
Listed next: entries and their corresponding IC50.

Below are worked cases with known answers.
# compound, tgt, IC50
data = [
    ("CN1CCC(CCCCc2ccc(S(=O)(=O)NCCCc3c[nH]c4ccc(Cl)cc34)cc2)CC1 [Example 115]", "Pin1 (Homo sapiens, UniProt Q13526)", "< 1000 nM"),
    ("O=S(=O)(NCCCc1c[nH]c2ccc(Cl)cc12)c1cccc(OCCCN2CCNCC2)c1 [Example 96]", "Pin1 (Homo sapiens, UniProt Q13526)", "1000 to 10000 nM"),
    ("CN1CCN(CCCOc2ccc(S(=O)(=O)Nc3cccc(-c4c[nH]c5ccccc45)c3)cc2)CC1 [Example 89]", "Pin1 (Homo sapiens, UniProt Q13526)", "10000 to 100000 nM"),
    ("CN1CCN(CCCOc2ccc(S(=O)(=O)NCCCc3c[nH]c4ccc(Cl)cc34)cc2)CC1 [Example 66]", "Pin1 (Homo sapiens, UniProt Q13526)", "< 1000 nM"),
    ("O=S(=O)(NCCCc1c[nH]c2ccc(Br)cc12)c1ccc(OCCCN2CCNCC2)cc1 [Example 153]", "Pin1 (Homo sapiens, UniProt Q13526)", "< 1000 nM"),
]

input: Entry CN1CCN(CC2(COc3ccc(S(=O)(=O)NCCCc4c[nH]c5ccc(Cl)cc45)cc3)CC2)CC1 [Example 116] : reported IC50 = ?
output: < 1000 nM

input: Entry CN1CCN(CCCOc2ccc(S(=O)(=O)NCCCc3c[nH]c4ccc(Cl)cc34)cc2F)CC1 [Example 103] : reported IC50 = ?
output: < 1000 nM

input: Entry CN(C)CCCOc1ccc(S(=O)(=O)NCCCc2ccccc2)cc1 [Example 15] : reported IC50 = ?
output: > 100000 nM

These measurements were taken from patent US12583818B2.
